The origin of these recorded values is the emibetuzumab library of Makowski et al. (2022).

B1: VH:VL chains; a variant is named by its letters at X, in order (parent)
chain 1: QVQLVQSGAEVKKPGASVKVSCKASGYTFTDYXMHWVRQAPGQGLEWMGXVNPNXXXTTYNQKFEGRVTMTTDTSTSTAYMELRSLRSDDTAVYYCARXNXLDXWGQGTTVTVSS
chain 2: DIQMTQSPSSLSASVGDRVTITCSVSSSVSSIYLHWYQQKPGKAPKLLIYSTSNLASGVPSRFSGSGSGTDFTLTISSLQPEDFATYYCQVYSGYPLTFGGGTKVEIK

# Variants of: B1
# protocol notes: yeast display scFab, FACS + sequencing
# recorded conditions: with MET
Some of the results follow. No count for the full screen is at hand.

- mutation code: "YKARGALS"
  antigen binding call: "binds"
- mutation code: "YKGRGFWA"
  antigen binding call: "no binding"
- mutation code: "FRGRGDVV"
  antigen binding call: "binds"
- mutation code: "YAGRGDVD"
  antigen binding call: "no binding"
- mutation code: "AETKGDVY"
  antigen binding call: "no binding"
- mutation code: "FKGEGFGS"
  antigen binding call: "no binding"
- mutation code: "SRKEGAAY"
  antigen binding call: "no binding"
- mutation code: "YRGRGFWF"
  antigen binding call: "binds"
- mutation code: "FRGRDFLF"
  antigen binding call: "no binding"
- mutation code: "YRAKGAGA"
  antigen binding call: "binds"
- mutation code: "YRARGALS"
  antigen binding call: "binds"
